# Protocol: Percentage unbound in human plasma
# Format: ADME, cell-free
// reported fraction unbound for each item listed
Answer field: number only, no words.

Look over these answered cases.
1) Cc1[nH]c(C(=O)N[C@@H]2CCN(c3ncc(C(=O)O)s3)CC23OCCO3)c(Cl)c1Cl    0.075
2) CO[C@H]1CN(c2nc(C(N)=O)c(C(=O)O)s2)CC[C@H]1NC(=O)c1[nH]c(C)c(Cl)c1Cl    0.043
3) COC[C@H]1CN(c2ncc(C(=O)O)s2)CC[C@H]1NC(=O)c1[nH]c(C)c(Cl)c1Cl (racemic)    0.052
4) CO[C@H]1CN(c2nc(-c3cnccn3)c(C(=O)O)s2)CC[C@H]1NC(=O)c1[nH]c(C)c(Cl)c1Cl    0.039
5) Cc1[nH]c(C(=O)N[C@@H]2CCN(c3ncc(C(=O)O)s3)CC23OCC(C)(C)CO3)c(Cl)c1Cl    0.02

Below: the item to evaluate.
Record summary for CO[C@H]1CO[C@]2(CN(c3ncc(C(=O)O)s3)CC[C@H]2NC(=O)c2[nH]c(C)c(Cl)c2Cl)OC1 (relative stereo) : reported fraction unbound = 0.053

###

# Test system: Escherichia coli
# Protocol: Antimicrobial activity against Escherichia coli tolC- by broth microdilution/CLSI method
# Assay type: functional
# Measurement parameters: Escherichia coli; read-out: MIC
Some compounds, each annotated with its measured MIC.
Give the quantity in µg/mL, number only.

Sample records with MIC:
1. COc1cc(OC)nc(-c2nc(N3CC[C@@H](NC(=O)c4[nH]c(C)c(Cl)c4Cl)[C@@H](OC)C3)sc2C(=O)O)n1    1
2. COCCO[C@H]1CN(c2ncc(C(=O)O)s2)CC[C@H]1NC(=O)c1[nH]c(C)c(Cl)c1Cl (racemic)    2
3. CO[C@H]1CN(c2nc(C(=O)NC[C@H](C)OC)c(C(=O)O)s2)CC[C@H]1NC(=O)c1[nH]c(C)c(Cl)c1Cl    0.5
4. CO[C@H]1CN(c2nc(-c3cncc(NCCN4CCN(C)CC4)n3)c(C(=O)O)s2)CC[C@H]1NC(=O)c1[nH]c(C)c(Cl)c1Cl    0.51

So, Cc1[nH]c(C(=O)N[C@@H]2CCN(c3ncc(C(=O)O)s3)C[C@@H]2O)c(Cl)c1Cl (racemic) ? Its MIC was 1

Lab note: measured MIC of CO[C@H]1CN(c2nc(CO)c(C(=O)O)s2)CC[C@H]1NC(=O)c1[nH]c(C)c(Cl)c1Cl (racemic) was 1

Consider Cc1[nH]c(C(=O)N[C@@H]2CCN(c3ncc(C(=O)O)s3)CC23OCC(C)(C)CO3)c(Cl)c1Cl . Its measured MIC is 1

###

# System: Escherichia coli
# Protocol: Antimicrobial activity against wild-type Escherichia coli Eco523 by broth microdilution/CLSI method
# Assay type: functional
# Measurement parameters: Escherichia coli, Eco523; read-out: MIC
Entries and their measured MIC follow.

# annotated cases, reported MIC shown
1) CS[C@H]1CN(c2ncc(C(=O)O)s2)CC[C@H]1NC(=O)c1[nH]c(C)c(Cl)c1Cl (racemic)    > 8 µg/mL
2) CO[C@H]1CN(c2nc(C(=O)N3CCOCC3)c(C(=O)O)s2)CC[C@H]1NC(=O)c1[nH]c(C)c(Cl)c1Cl (racemic)    > 8 µg/mL
3) CO[C@H]1CN(c2nc(C)c(C(=O)O)s2)CC[C@H]1NC(=O)c1[nH]c(C)c(Cl)c1Cl    > 8 µg/mL
4) CO[C@H]1CN(c2nc(C(N)=O)c(C(=O)O)s2)CC[C@H]1NC(=O)c1[nH]c(C)c(Cl)c1Cl    > 8 µg/mL
5) COC1(OC)CN(c2ncc(C(=O)O)s2)CC[C@H]1NC(=O)c1[nH]c(C)c(Cl)c1Cl    > 64 µg/mL

MIC in this record for Cc1[nH]c(C(=O)N[C@@H]2CCN(c3ncc(C(=O)O)s3)C[C@@H]2Cl)c(Cl)c1Cl (racemic) : > 8 µg/mL
